Assignment: determine reported TGI for the given compounds.
system: T-47D breast; test: NCI tumour cell line growth inhibition, 48 h

Worked examples follow.
                                   molecule  targetortestsystem  endpointname  measuredvalue
0  Cc1cc(C)c2c(c1)C/C(=C\c1ccccc1C(=O)O)C2=O        T-47D breast           TGI       > 100 µM
1              O=C(NCCCl)N(O)C(=O)Nc1ccccc1        T-47D breast           TGI       > 100 µM

As a next step, examine the compound that follows.
Exercise: Can you look up the measured TGI of "COc1cccc2cc(C(=O)O)c(=O)oc12" for me?
Key: > 100 µM
